tested on: Acinetobacter; assay: Antibacterial activity against Acinetobacter after overnight incubation by microbroth dilution method; format: functional
Would you mind telling me the reported MIC of each entry?

MIC for `CC(=O)N(O)CCCP(=O)(OC(C)C)OC(C)C` is > 200 µg/mL

MIC for CC(=O)N(O)CCCP(=O)(OC(C)OC(=O)OC(C)(C)C)OC(C)OC(=O)OC(C)(C)C (stereo unspecified) is > 200 µg/mL

MIC for `CC(=O)N(O)CCCP(=O)(OCOC(=O)c1ccccc1)OCOC(=O)c1ccccc1` is 200 µg/mL

MIC for CC(=O)N(O)CCCP(=O)(OC(C)OC(=O)c1ccccc1)OC(C)OC(=O)c1ccccc1 (stereo unspecified) is 100 µg/mL

MIC for `CCOP(=O)(CCCN(O)C(C)=O)OCC` is > 200 µg/mL

MIC for `CC(=O)N(O)CCCP(=O)(OCOC(=O)C(C)(C)C)OCOC(=O)C(C)(C)C` is > 200 µg/mL

MIC for CCOC(=O)OC(C)OP(=O)(CCCN(O)C(C)=O)OC(C)OC(=O)OCC (stereo unspecified) is > 200 µg/mL

MIC for O=CN(O)CCCP(=O)(O)O [FOSMIDOMYCIN] is 100 µg/mL

MIC for `CCOP(=O)(CCCN(O)C=O)OCC` is > 200 µg/mL

MIC for `CC(=O)N(O)CCCP(=O)([O-])O.[Na+]` is 50 µg/mL

MIC for `CC(=O)N(O)CCCP(=O)(OCC(=O)OC(C)(C)C)OCC(=O)OC(C)(C)C` is > 200 µg/mL
